Just for reference, ChEMBL document CHEMBL1944584 is where these values come from.

Molecular target: Sodium-dependent dopamine transporter (Homo sapiens, UniProt Q01959)
Sequence (Q01959 whole entry): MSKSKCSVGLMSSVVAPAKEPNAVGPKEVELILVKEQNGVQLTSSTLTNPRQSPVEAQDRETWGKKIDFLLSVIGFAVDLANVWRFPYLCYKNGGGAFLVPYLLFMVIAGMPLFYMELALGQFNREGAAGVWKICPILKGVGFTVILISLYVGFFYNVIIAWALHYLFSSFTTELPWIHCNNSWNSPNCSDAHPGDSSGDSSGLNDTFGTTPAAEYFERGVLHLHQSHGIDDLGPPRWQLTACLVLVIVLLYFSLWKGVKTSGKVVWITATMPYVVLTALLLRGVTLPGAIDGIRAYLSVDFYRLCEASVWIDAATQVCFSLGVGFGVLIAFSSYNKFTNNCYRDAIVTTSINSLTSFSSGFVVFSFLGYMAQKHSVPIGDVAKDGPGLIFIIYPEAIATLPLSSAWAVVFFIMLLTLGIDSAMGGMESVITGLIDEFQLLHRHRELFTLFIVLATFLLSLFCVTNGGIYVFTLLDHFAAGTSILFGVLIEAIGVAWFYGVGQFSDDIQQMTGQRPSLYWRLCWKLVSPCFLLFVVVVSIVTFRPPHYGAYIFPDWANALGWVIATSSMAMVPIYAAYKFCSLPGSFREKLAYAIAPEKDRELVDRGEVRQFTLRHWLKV
Parameter Measured: Ki (µM)
Express the result in µM but write the number alone.

Please give the measured Ki for this molecule: CC(NC(C)(C)C)C(=O)c1ccc(N=[N+]=[N-])c(I)c1 (racemic) 3.07
